Source listed as patent US10023558B2.

Exercise: for every item that follows, state its recorded pIC50.
# measurement target: human neutrophil elastase (HNE) (Homo sapiens)
# Sequence (P08246 30-247 limits assumed): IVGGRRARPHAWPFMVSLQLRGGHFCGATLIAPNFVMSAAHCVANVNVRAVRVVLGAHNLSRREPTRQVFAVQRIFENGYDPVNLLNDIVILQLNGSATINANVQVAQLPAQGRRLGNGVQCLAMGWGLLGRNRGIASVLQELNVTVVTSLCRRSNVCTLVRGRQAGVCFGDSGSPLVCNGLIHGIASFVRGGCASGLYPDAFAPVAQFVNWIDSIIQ
# procedure text: HNE Enzyme Assay (fluorogenic peptide substrate MeOSuc-Ala-Ala-Pro-Val-AMC)
# condition description: human leukocyte elastase 0.00072 U/mL, substrate 100 μM, 25° C., 30 minutes, at least two separate experiments; read-out: HNE inhibition (IC50 values)
# Procedure: Compounds of this invention were tested for potency in a human neutrophil elastase (HNE) enzyme activity assay. Assays were performed in 96-well plates in a total assay volume of 100 μL. […] Fluorescence was measured using a Molecular Devices fluorescence plate reader using 380 nm excitation and 460 nm emission wavelengths. A concentration response to each compound was performed and the effect of compound in each experiment was expressed as a percentage inhibition of the control enzyme fluorescence. […]
pIC50: −log10 of the molar value.

# annotated cases, reported pIC50 shown
{"smiles code": "Cc1c(-c2ccnn2-c2ccc(C#N)cc2)n(C(=O)N[C@H](c2ncc(C[N+](C)(C)C)o2)C(C)C)c(=O)n1-c1cccc(C(F)(F)F)c1", "measurement target": "human neutrophil elastase (HNE) (Homo sapiens)", "pIC50": "> 9.00"}
{"smiles code": "Cc1c(-c2ccnn2-c2ccc(C#N)cc2)n(C(=O)NC2CCN(C(=O)CC[N+](C)(C)C)CC2)c(=O)n1-c1cccc(C(F)(F)F)c1", "measurement target": "human neutrophil elastase (HNE) (Homo sapiens)", "pIC50": "> 9.00"}
{"smiles code": "Cc1c(-c2ccnn2-c2ccc(C#N)cc2)n(C(=O)NC2CCC3(CC2)CC[N+](C)(C)CC3)c(=O)n1-c1cccc(C(F)(F)F)c1", "measurement target": "human neutrophil elastase (HNE) (Homo sapiens)", "pIC50": "> 9.00"}
{"smiles code": "Cc1c(-c2ccnn2-c2ccc(C#N)cc2)n(C(=O)N[C@H]2CCC[C@@H]2OCc2ccccc2)c(=O)n1-c1cccc(C(F)(F)F)c1", "measurement target": "human neutrophil elastase (HNE) (Homo sapiens)", "pIC50": "8.00 to 9.00"}
{"smiles code": "Cc1c(-c2ccnn2-c2ccc(C#N)cc2)n(C(=O)N[C@H]2CC[C@H](C[N+](C)(C)Cc3ccccc3)CC2)c(=O)n1-c1cccc(C(F)(F)F)c1", "measurement target": "human neutrophil elastase (HNE) (Homo sapiens)", "pIC50": "> 9.00"}

Now let's try a different one.
Enquiry: State, in one line, measured pIC50 of `Cc1c(-c2ccnn2-c2ccc(C#N)cc2)n(C(=O)N[C@@H](C)C(=O)N(C)C2CCN(C)CC2)c(=O)n1-c1cccc(C(F)(F)F)c1`
Return: > 9.00

====

# measurement target: human neutrophil elastase (HNE) (Homo sapiens)
# procedure text: HNE Enzyme Assay (fluorogenic peptide substrate MeOSuc-Ala-Ala-Pro-Val-AMC)
# condition description: human leukocyte elastase 0.00072 U/mL, substrate 100 μM, 25° C., 30 minutes, at least two separate experiments; read-out: HNE inhibition (IC50 values)
measured property: IC50

{"smiles code": "Cc1c(-c2ccnn2-c2ccc(C#N)cc2)n(C(=O)N[C@H]2CC[C@@H]([N+](C)(C)C)CC2)c(=O)n1-c1cccc(C(F)(F)F)c1", "measured property": "IC50", "result": "1 to 10 nM"}

For each entry beneath this line, provide reported IC50.
1. CC[C@H](NC(=O)n1c(-c2ccnn2-c2ccc(C#N)cc2)c(C)n(-c2cccc(C(F)(F)F)c2)c1=O)c1ncc(C[N+](C)(C)C)o1
2. Cc1c(-c2ccnn2-c2ccc(C#N)cc2)n(C(=O)NC(C)(C)c2cc[n+](C)cc2)c(=O)n1-c1cccc(C(F)(F)F)c1
3. Cc1c(-c2ccnn2-c2ccc(C#N)cc2)n(C(=O)N[C@@H](C)C(=O)N(C)CCN(C)C)c(=O)n1-c1cccc(C(F)(F)F)c1
4. CC[n+]1ccc([C@H](C)NC(=O)n2c(-c3ccnn3-c3ccc(C#N)cc3)c(C)n(-c3cccc(C(F)(F)F)c3)c2=O)cc1
5. Cc1c(-c2ccnn2-c2ccc(C#N)cc2)n(C(=O)N[C@@H]2C[C@H]3CC[C@@H](C2)[N+]3(C)C)c(=O)n1-c1cccc(C(F)(F)F)c1
6. CC[N+](C)(C)C[C@H]1CC[C@@H](NC(=O)n2c(-c3ccnn3-c3ccc(C#N)cc3)c(C)n(-c3cccc(C(F)(F)F)c3)c2=O)CC1
7. Cc1c(-c2ccnn2-c2ccc(C#N)cc2)n(C(=O)N[C@H]2C[C@H](C[N+](C)(C)C)C2)c(=O)n1-c1cccc(C(F)(F)F)c1

Return:
< 1 nM
< 1 nM
< 1 nM
< 1 nM
< 1 nM
1 to 10 nM
< 1 nM
